target: human dopamine transporter/SLC6A3 (DAT) (Homo sapiens); construct: expressed in transfected cells; host or cells: HEK293; assay: Cellular uptake experiments: [3H]-dopamine reuptake inhibition in transporter-expressing HEK293 cells; type: cell-based; settings: Reuptake Inhibition (IC50 ± SE, µM) DAT, cells stably expressing DAT; [3H]-dopamine 1 µM; screening cut-off 50 µM
Reported metric: IC50

- [O-][S+](Cc1cccs1)C(c1ccccc1)c1ccccc1C(F)(F)F (stereo not drawn) [Compound 7o]: > 50 µM
- COc1ccccc1[C@H](c1ccccc1)[S@@+]([O-])Cc1cccs1: > 50 µM

// next entry
According to the records, this compound Cc1cccc([C@H](c2ccccc2)[S@+]([O-])Cc2cccs2)c1 displays IC50 of > 50 µM

###

Quick reference for IC50 among some compounds
target: human serotonin transporter/SLC6A4 (SERT) (Homo sapiens); construct: expressed in transfected cells; host or cells: HEK293; assay: Cellular uptake experiments: [3H]-serotonin reuptake inhibition in transporter-expressing HEK293 cells; type: cell-based; conditions: Reuptake Inhibition (IC50 ± SE, µM) SERT, cells stably expressing SERT; [3H]-serotonin 1 µM; screening cut-off 50 µM
Sequence (P31645 whole entry): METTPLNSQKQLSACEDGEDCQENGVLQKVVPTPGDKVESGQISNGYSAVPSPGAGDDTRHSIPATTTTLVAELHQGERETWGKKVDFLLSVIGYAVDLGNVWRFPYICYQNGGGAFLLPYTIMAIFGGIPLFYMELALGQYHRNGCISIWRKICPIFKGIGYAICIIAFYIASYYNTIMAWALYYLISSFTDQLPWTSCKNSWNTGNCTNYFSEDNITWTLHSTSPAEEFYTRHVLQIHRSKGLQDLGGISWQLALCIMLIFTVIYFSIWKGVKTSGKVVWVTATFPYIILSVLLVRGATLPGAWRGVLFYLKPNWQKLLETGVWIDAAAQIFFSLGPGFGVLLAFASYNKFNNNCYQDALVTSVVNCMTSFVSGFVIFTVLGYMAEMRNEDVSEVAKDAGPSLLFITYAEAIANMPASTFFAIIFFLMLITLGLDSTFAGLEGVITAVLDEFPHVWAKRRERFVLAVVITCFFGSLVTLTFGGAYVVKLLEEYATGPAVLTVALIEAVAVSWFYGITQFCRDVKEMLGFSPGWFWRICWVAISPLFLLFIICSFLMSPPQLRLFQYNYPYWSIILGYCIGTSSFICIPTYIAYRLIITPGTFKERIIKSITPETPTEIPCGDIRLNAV

Example results:
• [O-][S@+](Cc1cccs1)[C@@H](c1ccccc1)c1ccc(I)cc1 = 3.8 µM
• COc1cccc(C(c2ccccc2)[S+]([O-])Cc2cccs2)c1 (stereo not shown) [Compound 5s] = > 50 µM
• [O-][S@@+](Cc1cccs1)[C@@H](c1ccccc1)c1cccc(Br)c1 = > 50 µM

// next entry
According to the records, this compound COc1ccccc1[C@@H](c1ccccc1)[S@+]([O-])Cc1cccs1 displays IC50 of > 50 µM

###

target: human dopamine transporter/SLC6A3 (DAT) (Homo sapiens, UniProt Q01959); construct: expressed in transfected cells; host or cells: HEK293; experiment: Cellular uptake experiments: [3H]-dopamine reuptake inhibition in transporter-expressing HEK293 cells; format: cell-based; details: cells stably expressing DAT; [3H]-dopamine 1 µM; screening cut-off 50 µM; read-out: Reuptake Inhibition (IC50 ± SE, µM) DAT
Sequence (Q01959 whole entry): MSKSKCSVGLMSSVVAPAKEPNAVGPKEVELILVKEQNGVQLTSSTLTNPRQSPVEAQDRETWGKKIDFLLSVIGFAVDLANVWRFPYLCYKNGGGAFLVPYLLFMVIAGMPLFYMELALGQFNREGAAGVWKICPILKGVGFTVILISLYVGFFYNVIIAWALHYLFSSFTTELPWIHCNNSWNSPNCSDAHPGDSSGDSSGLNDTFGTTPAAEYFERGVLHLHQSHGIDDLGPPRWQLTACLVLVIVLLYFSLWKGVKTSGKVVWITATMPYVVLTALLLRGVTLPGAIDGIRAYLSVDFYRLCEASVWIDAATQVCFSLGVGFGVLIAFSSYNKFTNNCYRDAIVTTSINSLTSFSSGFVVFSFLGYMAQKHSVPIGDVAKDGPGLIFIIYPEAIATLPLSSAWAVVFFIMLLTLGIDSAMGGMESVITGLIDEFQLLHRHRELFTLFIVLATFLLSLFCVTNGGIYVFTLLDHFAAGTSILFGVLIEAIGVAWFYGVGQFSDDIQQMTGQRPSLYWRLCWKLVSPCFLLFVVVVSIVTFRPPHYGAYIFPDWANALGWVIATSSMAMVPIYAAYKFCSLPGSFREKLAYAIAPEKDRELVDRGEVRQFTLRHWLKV
Quick reference for IC50 among some compounds

- [O-][S@+](Cc1cccs1)[C@H](c1ccccc1)c1ccccc1Cl: > 50 µM

According to the records, this compound Cc1ccc(C(c2ccccc2)[S+]([O-])Cc2cccs2)cc1 (stereo not shown) [Compound 6n] displays IC50 of > 50 µM

According to the records, this compound Cc1ccccc1C(c1ccccc1)[S+]([O-])Cc1cccs1 (stereo not shown) [Compound 6l] displays IC50 of > 50 µM

According to the records, this compound [O-][S@+](Cc1cccs1)[C@@H](c1ccccc1)c1ccccc1Cl displays IC50 of > 50 µM

###

Quick reference for log10(IC50) among some compounds
molecular target: human dopamine transporter/SLC6A3 (DAT) (Homo sapiens); construct: expressed in transfected cells; host or cells: HEK293; experiment: Cellular uptake experiments: [3H]-dopamine reuptake inhibition in transporter-expressing HEK293 cells; format: cell-based; conditions: Reuptake Inhibition (IC50 ± SE, µM) DAT, cells stably expressing DAT; [3H]-dopamine 1 µM; screening cut-off 50 µM
Please keep in mind that the values are log10 of IC50 expressed in µM.

- [O-][S+](Cc1cccs1)C(c1ccccc1)c1ccccc1C(F)(F)F (stereo not drawn) [Compound 8o]: 0.95
- COc1cccc(C(c2ccccc2)[S+]([O-])Cc2cccs2)c1 (stereo not drawn) [Compound 5s]: 0.46
- [O-][S@@+](Cc1cccs1)[C@H](c1ccccc1)c1cccc(Cl)c1 [Compound 5e]: 0.48

According to the records, this compound Cc1cccc([C@H](c2ccccc2)[S@@+]([O-])Cc2cccs2)c1 [Compound 7m] displays log10(IC50) of 0.08

According to the records, this compound [O-][S+](Cc1cccs1)C(c1ccccc1)c1ccc(C(F)(F)F)cc1 (stereo not drawn) [Compound 7q] displays log10(IC50) of 1.38

According to the records, this compound [O-][S+](Cc1cccs1)C(c1ccccc1)c1cccc(I)c1 (stereo not drawn) [Compound 7j] displays log10(IC50) of 0.16
